This collection of values is drawn from ChEMBL document CHEMBL2203267.

Entries and their inhibition zone (IZ) values follow.
Test: Antifungal activity against Chrysosporium keratinophilum MTCC 2827 at 500 ug/mL after 72 hrs by well plate method
Format: functional

Solved cases below.
COc1ccc(C(=O)ON=C2CC(c3ccc(O)c(OC)c3)N(C)C(c3ccc(O)c(OC)c3)C2)cc1 (stereo unspecified); 4 mm
COc1cc(C2CC(=NOC(=O)c3cc(O)cc(O)c3)CC(c3ccc(O)c(OC)c3)N2C)ccc1O (stereo unspecified); 2 mm
COc1cc(C2CC(=NOC(=O)c3cccc(O)c3)CC(c3ccc(O)c(OC)c3)N2C)ccc1O (stereo unspecified); 1 mm
OC(Cn1cncn1)(Cn1cncn1)c1ccc(F)cc1F; 16 mm
COc1cc(C2CC(=NOC(=O)c3ccccc3O)CC(c3ccc(O)c(OC)c3)N2C)ccc1O (stereo unspecified); 4 mm

Input COc1cc(C2CC(=NOC(=O)c3ccc(Br)cc3)CC(c3ccc(O)c(OC)c3)N2C)ccc1O (stereo unspecified) . Output inhibition zone (IZ): 5 mm

Input COc1ccc(C(=O)ON=C2CC(c3ccc(O)c(OC)c3)N(C)C(c3ccc(O)c(OC)c3)C2)c(OC)c1 (stereo unspecified) . Output inhibition zone (IZ): 4 mm

Input COc1cc(C2CC(=NOC(=O)c3ccc([N+](=O)[O-])cc3)CC(c3ccc(O)c(OC)c3)N2C)ccc1O (stereo unspecified) . Output inhibition zone (IZ): 4 mm

Input COc1cc(C2CC(=NOC(=O)c3ccc(Cl)cc3)CC(c3ccc(O)c(OC)c3)N2C)ccc1O (stereo unspecified) . Output inhibition zone (IZ): 12 mm

Input COc1cc(C2CC(=NO)CC(c3ccc(O)c(OC)c3)N2C)ccc1O (stereo unspecified) . Output inhibition zone (IZ): 1 mm

Input COc1cc(C2CC(=NOC(=O)c3ccc(F)cc3)CC(c3ccc(O)c(OC)c3)N2C)ccc1O (stereo unspecified) . Output inhibition zone (IZ): 14 mm
